Test system: Trichomonas vaginalis G3 trophozoites
Particulars: HTS single concentration, parasite screen 1 µg/mL, replicate 2
Please go through the items and note down their T.vaginalis_%inb_Rep2.
Your answer is read as %, so omit the unit and give the number.

Data request: What measured T.vaginalis_%inb_Rep2 goes with C[C@H]1CCC/C=C/C(=O)c2c(O)cc(O)cc2CC(=O)O1 [BIA-D1399] ?
Data returned: 13.67

Data request: What measured T.vaginalis_%inb_Rep2 goes with CC[C@H](C)[C@H]1O[C@]2(C=C[C@@H]1C)C[C@@H]1C[C@@H](C/C=C(\C)[C@@H](O[C@H]3C[C@H](OC)[C@@H](O[C@H]4C[C@H](OC)[C@@H](O)[C@H](C)O4)[C@H](C)O3)[C@@H](C)/C=C/C=C3\CO[C@@H]4[C@H](O)C(C)C=C(C(=O)O1)[C@]34O)O2 (stereo partly shown) [BIA-A1579] ?
Data returned: 15.40

Data request: What measured T.vaginalis_%inb_Rep2 goes with COc1cc2c(c3oc(=O)c4c(c13)CCOC4=O)[C@@H]1C=CO[C@@H]1O2 [BIA-A1234] ?
Data returned: 13.02

Data request: What measured T.vaginalis_%inb_Rep2 goes with CCCCCC[C@H]1C(=O)O[C@H](C)[C@H](NC(=O)c2cccc(NC=O)c2O)C(=O)O[C@@H](C)[C@@H]1OC(=O)CC(C)C [BIA-A1442] ?
Data returned: 12.87

Data request: What measured T.vaginalis_%inb_Rep2 goes with CC(=O)OCC1=C[C@@H]2OC(=O)C3=CO[C@@H](O[C@@H]4O[C@H](CO)[C@@H](O)[C@H](O)[C@H]4O)[C@H]1[C@@H]32 [BIA-A1774] ?
Data returned: 15.84

Data request: What measured T.vaginalis_%inb_Rep2 goes with COC1=CC(C)=CC(C)C(O)C(C)CC(C)=CC=CC(OC)C(C(C)C(O)C(C)C2(O)CC(OC(=O)C=CC(=O)NC3=C(O)CCC3=O)C(C)C(C(C)C)O2)OC1=O (stereo not shown) [BIA-B1110] ?
Data returned: 93.35

Data request: What measured T.vaginalis_%inb_Rep2 goes with CCCC[C@H]1C(=O)O[C@H](C)[C@H](NC(=O)c2cccc(NC=O)c2O)C(=O)O[C@@H](C)[C@@H]1OC(=O)CC(C)C [BIA-A1444] ?
Data returned: 14.61

###

Tested on: Trichomonas vaginalis G3 trophozoites
Particulars: HTS, parasite screen at 1 µg/mL, replicate 1
# note: boundary value 10% maps to 0 (no); T.vaginalis_%inb_Rep1 below it maps to 1 (yes)

Data request: Here's an entry: COC1=C(OC)C(=O)C(C)C(C)C1=O (stereo not drawn) . Is its T.vaginalis_%inb_Rep1 below 10%?
Data returned: 0 (no)

Data request: Here's an entry: CC1CCCC(O)CCCCCc2cc(O)cc(O)c2C(=O)O1 (stereo not drawn) [Zearalanol, alpha-] . Is its T.vaginalis_%inb_Rep1 below 10%?
Data returned: 1 (yes)

Data request: Here's an entry: `COc1c(O)c2c(=O)cc3c4c5c(cc(=O)c6c(O)c(OC)c(C[C@H](C)OC(C)=O)c(c(c1C[C@H](C)OC(C)=O)c24)c65)OCO3` . Is its T.vaginalis_%inb_Rep1 below 10%?
Data returned: 0 (no)

Data request: Here's an entry: CC[C@H]1CCC[C@H](O)[C@@H](C)C(=O)C2=C[C@H]3[C@@H]4C[C@H](O)C[C@H]4CC[C@H]3[C@@H]2CC(=O)O1 [Dihydrospinosyn A aglycone] . Is its T.vaginalis_%inb_Rep1 below 10%?
Data returned: 0 (no)

Data request: Here's an entry: `CC1=C[C@H]2C(=O)O[C@H]3C[C@@H](C/C=C(\C)[C@@H](O)[C@@H](C)/C=C/C=C4\CO[C@H]([C@@H]1O)[C@@]42O)O[C@@]1(C=C[C@H](C)[C@@H](C2CCCCC2)O1)C3` . Is its T.vaginalis_%inb_Rep1 below 10%?
Data returned: 0 (no)

Data request: Here's an entry: CC(=O)OC1CCC2(C)C3=C(CCC2C1(C)C)C1(C)CCC(C(C)CCC=C(C)C)C1(C)CC3 (stereo not drawn) [Euphol acetate] . Is its T.vaginalis_%inb_Rep1 below 10%?
Data returned: 0 (no)

###

Tested on: T. foetus
Procedure Summary: Medium-throughput (MTS) confirmatory dose-response growth assay, T. foetus
Type: cell-based, Tritrichomonas foetus
Particulars: 96-well, 10,000 cells/mL in 50 μL, 48 h, mean ± SEM; >10 = no appreciable activity at highest dose
Please go through the items and note down their IC50.
Your answer is read as µM, so omit the unit and give the number.

Data request: What measured IC50 goes with Cn1ncnc2c(=O)n(C)c(=O)nc1-2 [Toxoflavin, toxoflavin, reference compound] ?
Data returned: 4.1

Data request: What measured IC50 goes with COc1ccc2cc1Oc1cc(ccc1O)[C@H](O)[C@]13SS[C@@]4(C(=O)N1C)[C@H](O)C1=COC=C[C@H](OC2=O)[C@H]1N4C3=O [Emestrin, emestrin, reference compound] ?
Data returned: 7.3

Data request: What measured IC50 goes with CCC(C)CC1CCC(O)(C(C)(O)C(=O)NC2C(=O)N3NCCCC3C(=O)N(O)C(C)C(=O)NCC(=O)N3NCCCC3C(=O)N(O)C(C)C(=O)OC2C(C)C)OC1C (stereo not drawn) ?
Data returned: 0.44

Data request: What measured IC50 goes with CC(/C=C/C(=O)NO)=C\[C@@H](C)C(=O)c1ccc(N(C)C)cc1 [Trichostatin A, trichostatin A, reference compound] ?
Data returned: 0.048

###

System: Trichomonas vaginalis G3 trophozoites
Particulars: HTS, parasite screen at 1 µg/mL, replicate 2
Positions of bridges follow the written chain, without caps; N, C: chain ends. Non-standard residues stand in square brackets, D forms with d. Residues, ends and D or L forms follow the SMILES beside them. *: point of attachment. NMePhe(4-NMe2) = CN[C@@H](Cc1ccc(N(C)C)cc1)C(=O)O; Pip(4-oxo) = O=C1CCN[C@H](C(=O)O)C1; Picolinoyl(3-OH) = O=C(c1ncccc1O)*; Phg = N[C@H](C(=O)O)c1ccccc1; dAbu = CC[C@@H](N)C(=O)O; GABA = NCCCC(=O)O
Measured Endpoint: T.vaginalis_%inb_Rep2 (%)
Your answer is read as %, so omit the unit and give the number.

Data request: What measured T.vaginalis_%inb_Rep2 goes with CC[C@H]1NC(=O)[C@@H](NC(=O)c2ncccc2O)[C@@H](C)OC(=O)[C@H](c2ccccc2)NC(=O)[C@@H]2CC(=O)CCN2C(=O)[C@H](Cc2ccc(N(C)C)cc2)N(C)C(=O)[C@@H]2CCCN2C1=O [Virginiamycin B] ({Picolinoyl(3-OH)}-T[dAbu]P[NMePhe(4-NMe2)][Pip(4-oxo)][Phg]; ester 1-C) ?
Data returned: 11.09

Data request: What measured T.vaginalis_%inb_Rep2 goes with CC[C@]1(C)C[C@@H](OC(=O)CO)[C@]2(C)[C@H](C)CC[C@]3(CCC(=O)[C@H]32)[C@@H](C)[C@@H]1O [Dihydropleuromutilin] ?
Data returned: 13.23

Data request: What measured T.vaginalis_%inb_Rep2 goes with `CC(=O)c1c(O)c(C(C)=O)c(O)c(C(C)=O)c1O` ?
Data returned: 10.12

Data request: What measured T.vaginalis_%inb_Rep2 goes with `CC1=CC[C@H]2C(C)(C)CCC[C@]2(C)[C@H]1CO` ?
Data returned: 11.14

Data request: What measured T.vaginalis_%inb_Rep2 goes with CC(C)[C@H]1NC(=O)[C@H](Cc2ccccc2)NC(=O)[C@@H](C(C)C)NC(=O)[C@@H](C)NC(=O)CCCNC(=O)[C@@H](Cc2c[nH]c3ccccc23)NC(=O)[C@@H](C)NC1=O [Unguisin A] (cyclo(F[dV][dA][dW][GABA][dA][dV])) ?
Data returned: 14.50

Data request: What measured T.vaginalis_%inb_Rep2 goes with OCC1=CC(NC2CC(CO)C(OC3OC(CO)C(O)C(O)C3O)C(O)C2O)C(O)C(O)C1O (stereo not drawn) ?
Data returned: 19.07

Data request: What measured T.vaginalis_%inb_Rep2 goes with C/C=C/[C@@H]1C=C[C@@H]2C[C@H](C)CC[C@H]2[C@]1(C)/C(O)=C1/C(=O)[C@@H](CO)N(C)C1=O [Epiequisetin] ?
Data returned: 4.34

Data request: What measured T.vaginalis_%inb_Rep2 goes with CCC1NC(=O)C(NC(=O)c2ncccc2O)C(C)OC(=O)C(c2ccccc2)NC(=O)C2CC(=O)CCN2C(=O)C(Cc2ccccc2)N(C)C(=O)C2CCCN2C1=O (stereo not drawn) ?
Data returned: 3.72

Data request: What measured T.vaginalis_%inb_Rep2 goes with `C=C1CC[C@H]2C(C)(C)CCC[C@]2(C)[C@H]1C[C@@]12C[C@H]3C(=O)N4CCC=C4C(=O)N3[C@@H]1Nc1ccccc12` ?
Data returned: 15.26

Data request: What measured T.vaginalis_%inb_Rep2 goes with `C/C=C(\C)c1cc(O)c(C)c2c1Oc1cc(O)cc(C)c1C(=O)O2` ?
Data returned: 4.39

Data request: What measured T.vaginalis_%inb_Rep2 goes with `C=C1CC[C@H]2C(C)(C)CCC[C@]2(C)[C@H]1C[C@@]12C[C@H]3C(=O)N[C@@H](CC(C)C)C(=O)N3[C@@H]1Nc1ccccc12` ?
Data returned: 4.92

Data request: What measured T.vaginalis_%inb_Rep2 goes with CC[C@H]1CCC[C@H](O)[C@@H](C)C(=O)C2=C[C@H]3[C@@H]4C[C@H](O)C[C@H]4CC[C@H]3[C@@H]2CC(=O)O1 [Dihydrospinosyn A aglycone] ?
Data returned: 12.58
